Kindly find below pKi information for Protease (Human immunodeficiency virus 1, UniProt Q9YQ12) taken from the literature.
# reply with the number alone; pKi is -log10 of concentration in mol/L

Ask | Given COC(=O)N[C@H](C(=O)NN(CC[C@@](O)(Cc1ccccc1)C(=O)N[C@H]1c2ccccc2C[C@H]1O)Cc1ccc(-c2ccc(NC(C)=O)cc2)cc1)C(C)(C)C , state its recorded pKi.
Reply | 8.74

Ask | Given COc1ccc(S(=O)(=O)N(CC(C)C)C[C@@H](O)[C@H](Cc2ccccc2)NC(=O)O[C@H]2CO[C@H]3OC[C@H](N(C)C)[C@H]32)cc1 , state its recorded pKi.
Reply | 10.85

Ask | Given Cc1cccc(C)c1OCC(=O)NCC(O)(CCc1ccccc1)C(=O)N[C@@H](Cc1ccccc1)C(=O)N[C@H]1c2ccccc2C[C@H]1O (stereo in doubt; (B)-20) , state its recorded pKi.
Reply | 6.00

Ask | Given CNC(=O)[C@H](C(C)C)n1cc([C@H](Cc2ccccc2)n2cc([C@H](Cc3ccccc3)n3cc([C@H](C)N)nn3)nn2)nn1 , state its recorded pKi.
Reply | 3.30

---

Kindly find below pKi information for Protease (Human immunodeficiency virus 1, UniProt Q9YQ12) taken from the literature.
# reply with the number alone; pKi is -log10 of concentration in mol/L

- Molecule: "O=C1N(Cc2cccc(CO)c2)C(Cc2ccccc2)C(O)C(C(Br)Cc2ccccc2)N1Cc1cccc(CO)c1 (stereo unspecified)"
  Endpoint Name: "pKi"
  Endpoint Value: 7.96

Ask | Which measured pKi belongs to CC(C)CN(C[C@@H](O)[C@H](Cc1ccccc1)NC(=O)O[C@H]1CC2CO[C@H]3OCC[C@@H]1[C@@H]23)S(=O)(=O)c1ccc2nc(NC3CC3)sc2c1 (stereo partly specified) , tested on Protease (Human immunodeficiency virus 1, UniProt Q9YQ12)?
Reply | 11.00

Ask | Which measured pKi belongs to COc1ccc(S(=O)(=O)N(CC(C)C)C[C@@H](O)[C@H](Cc2ccc(-c3cccnc3)cc2)NC(=O)O[C@H]2CCOC2)cc1 , tested on Protease (Human immunodeficiency virus 1, UniProt Q9YQ12)?
Reply | 8.80

Ask | Which measured pKi belongs to COC(=O)N[C@H](C(=O)NN(CC[C@@](O)(Cc1ccccc1)C(=O)N[C@H]1c2ccccc2C[C@H]1O)Cc1ccc(-c2ccccc2)cc1)C(C)(C)C , tested on Protease (Human immunodeficiency virus 1, UniProt Q9YQ12)?
Reply | 7.92

Ask | Which measured pKi belongs to COC(=O)N[C@H](C(=O)NN(Cc1ccccc1)C[C@](O)(Cc1ccccc1)C(=O)N[C@H]1c2ccccc2C[C@H]1O)C(C)(C)C , tested on Protease (Human immunodeficiency virus 1, UniProt Q9YQ12)?
Reply | 5.66

Ask | Which measured pKi belongs to COC(=O)N[C@H](C(=O)NN(CCC[C@@](O)(Cc1ccccc1)C(=O)N[C@H]1c2ccccc2C[C@H]1O)Cc1ccc(CN2CCOCC2)cc1)C(C)(C)C , tested on Protease (Human immunodeficiency virus 1, UniProt Q9YQ12)?
Reply | 7.96

---

Kindly find below Ki information for Protease (Human immunodeficiency virus 1) taken from the literature.
Note: unit nM is implicit; provide only the numeric part.

- Molecule: "COC[C@H]1C[C@@H](O)CN1C(=O)c1cccc(C(=O)N[C@@H](Cc2ccccc2)[C@H](O)CN(CC(C)C)S(=O)(=O)c2ccc(OC)cc2)c1"
  Units Of Measure: "nM"
  Ki: 0.27
- Molecule: "N#Cc1cc(CN2C(=O)NC(CCc3ccccc3)C(O)C2Cc2ccccc2)ccc1F (centres undefined)"
  Units Of Measure: "nM"
  Ki: 110

Ask | Which measured Ki belongs to COC(=O)N[C@H](C(=O)NN(CCC[C@@](O)(Cc1ccccc1)C(=O)N[C@H]1c2ccccc2C[C@H]1O)Cc1ccc(I)cc1)C(C)(C)C , tested on Protease (Human immunodeficiency virus 1)?
Reply | 4.5

Ask | Which measured Ki belongs to O=C1N(Cc2ccc3[nH]ncc3c2)C(CCc2ccccc2)C(O)C(Cc2ccccc2)N1Cc1ccc2[nH]ncc2c1 (centres undefined) , tested on Protease (Human immunodeficiency virus 1)?
Reply | 0.0603

Ask | Which measured Ki belongs to COc1ccc(S(=O)(=O)N(CC(C)C)C[C@@H](O)[C@H](Cc2ccccc2)NC(=O)[C@@H]2CN(c3ccccc3)C(=O)O2)cc1 , tested on Protease (Human immunodeficiency virus 1)?
Reply | 0.1

Ask | Which measured Ki belongs to COc1ccc(S(=O)(=O)N(CC(C)C)C[C@@H](O)[C@H](Cc2ccccc2)NC(=O)O[C@H]2CO[C@H]3OC[C@H](N=[N+]=[N-])[C@H]32)cc1 , tested on Protease (Human immunodeficiency virus 1)?
Reply | 0.0039

Ask | Which measured Ki belongs to COC(=O)N[C@H](C(=O)NN(CCC[C@](O)(Cc1ccccc1)C(=O)N[C@H]1c2ccccc2C[C@H]1O)Cc1ccc(Br)cc1)C(C)(C)C , tested on Protease (Human immunodeficiency virus 1)?
Reply | 420

Ask | Which measured Ki belongs to CC(C)CN(C[C@@H](O)[C@H](Cc1ccccc1)NC(=O)O[C@H]1CCOC1)S(=O)(=O)c1ccc(N)cc1 , tested on Protease (Human immunodeficiency virus 1)?
Reply | 0.6
